Molecular target: Gemin5 WD40 E197A (Homo sapiens, UniProt Q8TEQ6 1-739, E197A)
Sequence (Q8TEQ6 1-739 E197A): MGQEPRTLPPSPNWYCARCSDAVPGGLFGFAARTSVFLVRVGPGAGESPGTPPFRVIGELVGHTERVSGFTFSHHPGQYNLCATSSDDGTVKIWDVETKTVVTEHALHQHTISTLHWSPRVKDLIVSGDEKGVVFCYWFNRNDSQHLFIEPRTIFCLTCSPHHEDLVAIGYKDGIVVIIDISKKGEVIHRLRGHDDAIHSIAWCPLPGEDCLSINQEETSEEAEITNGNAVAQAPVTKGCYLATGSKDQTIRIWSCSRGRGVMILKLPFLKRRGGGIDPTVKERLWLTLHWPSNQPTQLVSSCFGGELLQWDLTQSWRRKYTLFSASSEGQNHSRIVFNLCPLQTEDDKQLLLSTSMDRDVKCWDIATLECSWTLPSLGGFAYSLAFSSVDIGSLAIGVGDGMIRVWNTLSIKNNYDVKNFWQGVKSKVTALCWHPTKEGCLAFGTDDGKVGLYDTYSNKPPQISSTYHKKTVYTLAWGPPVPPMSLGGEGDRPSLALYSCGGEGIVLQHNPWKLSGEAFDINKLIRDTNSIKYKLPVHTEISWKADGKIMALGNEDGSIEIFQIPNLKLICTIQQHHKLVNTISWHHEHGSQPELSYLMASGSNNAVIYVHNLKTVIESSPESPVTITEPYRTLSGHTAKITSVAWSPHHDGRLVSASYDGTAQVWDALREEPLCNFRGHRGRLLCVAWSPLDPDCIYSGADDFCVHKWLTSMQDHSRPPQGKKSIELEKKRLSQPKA
Assay: ITC
Experimental Readout: Kd

Kd reported for this binder AAUUUUUG (ssRNA) [pre-U4 (118-125) Sm site] : 40 µM
